Value source: ChEMBL document CHEMBL1152327

molecular target: Signal transducer and activator of transcription 3 (Homo sapiens) (UniProt P40763); assay: Inhibition of STAT3 upto 10 uM by Western blotting
Sequence (P40763 whole entry): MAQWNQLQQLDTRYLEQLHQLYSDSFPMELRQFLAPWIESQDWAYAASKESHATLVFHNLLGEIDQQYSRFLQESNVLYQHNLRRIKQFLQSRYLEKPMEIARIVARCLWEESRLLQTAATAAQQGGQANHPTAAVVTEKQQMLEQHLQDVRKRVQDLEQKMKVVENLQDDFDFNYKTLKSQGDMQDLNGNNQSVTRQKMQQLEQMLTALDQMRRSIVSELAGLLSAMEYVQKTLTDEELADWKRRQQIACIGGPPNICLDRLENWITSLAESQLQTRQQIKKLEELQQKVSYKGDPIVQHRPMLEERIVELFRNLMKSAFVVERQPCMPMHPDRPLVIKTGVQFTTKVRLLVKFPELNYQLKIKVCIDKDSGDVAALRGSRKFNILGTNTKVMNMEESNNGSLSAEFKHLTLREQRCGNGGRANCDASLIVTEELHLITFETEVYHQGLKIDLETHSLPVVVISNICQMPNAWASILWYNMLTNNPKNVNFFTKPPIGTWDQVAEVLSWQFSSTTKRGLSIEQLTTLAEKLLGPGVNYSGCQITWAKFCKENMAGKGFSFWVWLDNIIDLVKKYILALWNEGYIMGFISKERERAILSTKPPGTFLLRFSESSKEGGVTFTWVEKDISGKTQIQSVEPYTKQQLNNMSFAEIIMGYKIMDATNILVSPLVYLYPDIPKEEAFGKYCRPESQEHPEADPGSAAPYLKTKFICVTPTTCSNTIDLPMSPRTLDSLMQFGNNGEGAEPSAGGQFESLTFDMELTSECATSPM
Calls of active or inactive are those of the source. The calls are words filed in the database; no cut-off is given here.
metric-name: inhibition

[[record]]
structure_string = "CC(=O)OC(C)(C)/C=C/C(=O)[C@](C)(O)[C@H]1[C@H](O)C[C@@]2(C)[C@@H]3CC=C4[C@@H](C[C@H](O[C@@H]5O[C@H](CO)[C@@H](O)[C@H](O)[C@H]5O)C(=O)C4(C)C)[C@]3(CO)C(=O)C[C@]12C"
metric_name = "inhibition"
recorded_measurement = "inactive"

[[record]]
structure_string = "CC(C)(O)/C=C/C(=O)[C@](C)(O)[C@H]1[C@H](O)C[C@@]2(C)[C@@H]3CC=C4[C@@H](C[C@H](O)C(=O)C4(C)C)[C@]3(CO)C(=O)C[C@]12C"
metric_name = "inhibition"
recorded_measurement = "inactive"

[[record]]
structure_string = "CC(C)(O)CCC(=O)[C@](C)(O)[C@H]1[C@H](O)C[C@@]2(C)[C@@H]3CC=C4[C@@H](CC(=O)[C@H](O)C4(C)C)[C@]3(C)C(=O)C[C@]12C"
metric_name = "inhibition"
recorded_measurement = "inactive"

[[record]]
structure_string = "CC(=O)OC(C)(C)/C=C/C(=O)[C@](C)(O)[C@H]1[C@H](O)C[C@@]2(C)[C@@H]3CC=C4[C@@H](C[C@H](O)C(=O)C4(C)C)[C@]3(CO)C(=O)C[C@]12C"
metric_name = "inhibition"
recorded_measurement = "inactive"

[[record]]
structure_string = "C/C(=C\\[C@@H]1C[C@](C)(O)[C@H]2[C@@H](C[C@@]3(C)[C@@H]4[C@@H](O)C=C5[C@@H](C[C@H](O)[C@H](O)C5(C)C)[C@]4(C)C(=O)C[C@]23C)O1)CO"
metric_name = "inhibition"
recorded_measurement = "inactive"

[[record]]
structure_string = "CC(=O)OC(C)(C)CCC(=O)[C@](C)(O)[C@H]1[C@H](O)C[C@@]2(C)[C@@H]3[C@@H](O)C=C4[C@@H](C[C@H](O)C(=O)C4(C)C)[C@]3(C)C(=O)C[C@]12C"
metric_name = "inhibition"
recorded_measurement = "inactive"

[[record]]
structure_string = "CC(=O)[C@H]1[C@H](O)C[C@@]2(C)[C@@H]3CC=C4[C@@H](C[C@H](O[C@@H]5O[C@H](CO)[C@@H](O)[C@H](O)[C@H]5O)C(=O)C4(C)C)[C@]3(C)C(=O)C[C@]12C"
metric_name = "inhibition"
recorded_measurement = "inactive"

[[record]]
structure_string = "CC(=O)[C@H]1[C@H](O)C[C@@]2(C)[C@@H]3CC=C4[C@@H](C[C@H](O)C(=O)C4(C)C)[C@]3(C)C(=O)C[C@]12C"
metric_name = "inhibition"
recorded_measurement = "inactive"

[[record]]
structure_string = "CC(C)(O)CCC(=O)[C@](C)(O)[C@H]1[C@H](O)C[C@@]2(C)[C@@H]3CC=C4[C@@H](C[C@H](O)C(=O)C4(C)C)[C@]3(CO)C(=O)C[C@]12C"
metric_name = "inhibition"
recorded_measurement = "inactive"

[[record]]
structure_string = "CC(C)=CCC[C@@H](C)[C@H]1CC[C@@]2(C)[C@@H]3CC=C4[C@H](CCCC4(C)C)[C@H]3C(=O)C[C@]12C"
metric_name = "inhibition"
recorded_measurement = "inactive"


====

molecular target: UniProt:P40763; test: Inhibition of STAT3 upto 10 uM by Western blotting
Active and inactive are the calls of the source. The rule behind the calls is not given here.
metric-name: inhibition

[[record]]
structure_string = "C/C(=C\\[C@@H]1C[C@](C)(O)[C@H]2[C@@H](C[C@@]3(C)[C@@H]4[C@@H](O)C=C5[C@@H](C[C@H](O[C@@H]6O[C@H](CO)[C@@H](O)[C@H](O)[C@H]6O)[C@H](O)C5(C)C)[C@]4(C)C(=O)C[C@]23C)O1)CO"
recorded_measurement = "inactive"

[[record]]
structure_string = "CC(=O)OC(C)(C)/C=C/C(=O)[C@](C)(O)[C@H]1[C@H](O)C[C@@]2(C)[C@@H]3CC=C4[C@@H](C[C@H](O[C@@H]5O[C@H](CO)[C@@H](O)[C@H](O)[C@H]5O)C(=O)C4(C)C)[C@]3(C)C(=O)C[C@]12C"
recorded_measurement = "inactive"


====

biological target: UniProtKB P40763; test: Inhibition of STAT3 upto 10 uM by Western blotting
Activity calls are given as the source filed them. The calls are words filed in the database; no cut-off is given here.
metric-name: inhibition

[[record]]
molecule = "CC(=O)OC(C)(C)CCC(=O)[C@](C)(O)[C@H]1[C@H](O)C[C@@]2(C)[C@@H]3CC=C4[C@@H](CC(=O)[C@H](O)C4(C)C)[C@]3(C)C(=O)C[C@]12C"
recorded_measurement = "inactive"

[[record]]
molecule = "CC1(C)C(=O)[C@@H](O)C[C@@H]2C1=CC[C@@H]1[C@@]2(C)C(=O)C[C@]2(C)[C@@H]([C@@](C)(O)C(=O)CC(O)C(C)(C)O)[C@H](O)C[C@@]12C (stereo partly drawn)"
recorded_measurement = "inactive"

[[record]]
molecule = "CC(C)(O)CCC(=O)[C@](C)(O)[C@H]1[C@H](O)C[C@@]2(C)[C@@H]3CC=C4[C@@H](C[C@H](O)C(=O)C4(C)C)[C@]3(C)C(=O)C[C@]12C"
recorded_measurement = "inactive"

